From: patent US10604489B2

# measurement_target: μ-receptor (Homo sapiens (Human))
# procedure_text: Receptor binding, competitive displacement of [3H]DAMGO
# condition_label: 0.25 nM [3H]DAMGO, CHO cell membrane protein, 60 min at 25° C.
Where a name gives a salt, the structure may show the parent alone.
readout: Ki

molecule | Ki
COC1(c2ccnc(C(N)=O)c2)C2CCCC1CN(C[C@H]1CCCO1)C2.Cl (single isomer, unassigned) [Compound 136, hydrochloride] | > 5 nM
COC1(c2ccnc(C(N)=O)c2)C2CCCC1CN(Cc1ccncc1)C2 (stereo not shown) [Compound 69, hydrochloride] | > 5 nM
COC1(c2ccnc(C(N)=O)c2)C2CCCC1CN(CC(C)C)C2 (stereo not shown) [Compound 92, hydrochloride] | > 5 nM
CO[C@@]1(c2ccnc(C(N)=O)c2)[C@@H]2CCC[C@H]1CN(Cc1ncc(C)[nH]1)C2.Cl [Compound 153, hydrochloride] | < 1 nM

Reported Ki, molecule COC1(c2ccc(C(N)=O)s2)C2CCCC1CN(CCN1CCOC1=O)C2 (stereo not shown) [Compound 98] : ____
> 5 nM

Reported Ki, molecule CCC[C@H](C)N1CC2CCCC(C1)C2(OC)c1ccnc(C(N)=O)c1 (single isomer, unassigned) [Compound 134, hydrochloride] : ____
< 1 nM

Reported Ki, molecule COC1(c2ccc(C(N)=O)s2)C2CCCC1CN(CC1CC1)C2 (stereo not shown) [Compound 36, hydrochloride] : ____
< 1 nM

====

# measurement_target: human μ opioid receptor (Homo sapiens (Human), UniProt P35372)
# procedure_text: Functional activity ([35S]GTPγS binding)
# Assay type: biochemical
# condition_label: [35S]GTPγS 0.080 nM, CHO cell membranes, 60 min at 30° C., filtration
Where a name gives a salt, the structure may show the parent alone.
readout: EC50

Example results:
compound | measurement_target | recorded_value
COC1(c2ccc(C(N)=O)s2)C2CCCC1CN(C1CCOCC1)C2 (stereo not shown) [Compound 71, hydrochloride] | human μ opioid receptor (Homo sapiens (Human), UniProt P35372) | > 75 nM
CO[C@@]1(c2ccnc(C(N)=O)c2)[C@@H]2CCC[C@H]1CN(Cc1ncc(C)[nH]1)C2.Cl [Compound 153, hydrochloride] | human μ opioid receptor (Homo sapiens (Human), UniProt P35372) | 10 to 75 nM
COC1(c2cccc(C(N)=O)c2)C2CCCC1CN(C1CC3(CCOCC3)C1)C2 (stereo not shown) [Compound 6, hydrochloride] | human μ opioid receptor (Homo sapiens (Human), UniProt P35372) | < 10 nM

Reported EC50, compound COC1(c2ccc(C(N)=O)s2)C2CCCC1CN(CCN1CCOC1=O)C2 (stereo not shown) : ____
10 to 75 nM

====

# measurement_target: UniProt:P35372
# procedure_text: Functional activity ([35S]GTPγS binding)
# Type: biochemical
# condition_label: [35S]GTPγS 0.080 nM, CHO cell membranes, 60 min at 30° C., filtration
pEC50: −log10 of the molar value. Counter-ions that a name gives are not always drawn.
readout: pEC50

Example results:
molecule | pEC50
COC1(c2ccnc(C(N)=O)c2)C2CCCC1CN(Cc1ncc[nH]1)C2 (stereo not shown) [Compound 99, hydrochloride] | 7.12 to 8.00
COC1(c2ccnc(C(N)=O)c2)C2CCCC1CN([C@@H]1CCOC1)C2 (stereo partly shown) [Compound 78, hydrochloride] | 7.12 to 8.00
CCC[C@@H](C)N1CC2CCCC(C1)C2(OC)c1ccnc(C(N)=O)c1 (single isomer, unassigned) [Compound 137, hydrochloride] | 7.12 to 8.00
CCCCN1CC2CCCC(C1)C2(OC)c1cccc(C(N)=O)c1 (stereo not shown) [Compound 29, hydrochloride] | > 8.00
COC1(c2ccc(C(N)=O)s2)C2CCCC1CN(C1CN(C(C)=O)C1)C2 (stereo not shown) [Compound 114, hydrochloride] | < 7.12

Reported pEC50, molecule COC1(c2ccnc(C(N)=O)c2)C2CCCC1CN([C@H]1C[C@H]3C[C@H]3C1)C2 (stereo partly shown) [Compound 94, hydrochloride] : ____
7.12 to 8.00

Reported pEC50, molecule COC1(c2cccc(C(N)=O)c2)C2CCCC1CN(C[C@@H]1C[C@@H]3C[C@@H]3C1)C2 (stereo partly shown) [Compound 156, hydrochloride] : ____
> 8.00
